// values below are reported melting point

> print(dat)
                        compound      testvalue
1  Cl.Cl.NCCCC(=O)NCc1ccc(CN)cc1  251 to 253 °C

Then this compound:
Challenge: melting point for Cl.Cl.NCCCNC(=O)CCCN [7b] ?
Response given: 140 to 142 °C

* * *

reportedMetric: melting point

> print(dat)
              smilesrecord      testvalue
1  Cl.Cl.NCCCCCCNC(=O)CCCN  147 to 150 °C
2      Cl.Cl.NCCCC(=O)NCCN  144 to 146 °C

Challenge: melting point for `Cl.Cl.NCCCCCCCCNC(=O)CCCN` ?
Response given: 136 to 138 °C
